Target: T1, Human OX40 (Sino Biological Inc) (human, UniProt P43489 29-216, limits assumed)
T1 construct: Bought soluble protein used as SPR analyte; also called huOX40
T1 sequence: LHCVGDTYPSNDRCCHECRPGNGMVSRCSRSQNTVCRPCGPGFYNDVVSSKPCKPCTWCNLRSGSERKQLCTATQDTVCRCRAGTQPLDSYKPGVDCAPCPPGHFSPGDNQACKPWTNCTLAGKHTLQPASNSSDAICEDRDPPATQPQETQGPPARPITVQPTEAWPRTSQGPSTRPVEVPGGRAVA
Experiment: SPR (Biacore), antibody captured via anti-human Fc, huOX40 analyte
quantity_name: Kd (nM)
Please respond with the number in nM and leave the unit unwritten.

query: // lookup Kd for 3C8.gr.8 (antibody, V domains shown, human Fc) VH: EVQLVQSGAEVKKPGASVKVSCKASGYAFTNYLIEWVRQAPGQGLEWIGVINPGSGDTYYSEKFKGRVTLTRDTSTSTAYLELSSLRSEDTAVYYCARDRLDYWGQGTLVTVSS VL: DIQMTQSPSSLSASVGDRVTITCHASQDISSYIVWYQQKPGKSFKGLIYHGTNLEDGVPSRFSGSGSGTDFTLTISSLQPEDFATYYCVHYAQFPYTFGQGTKVEIK
result: 2.16

# credit: patent US20150307617A1
